- measurementProtocol: chemical genetic growth profiling, strain panel (AID 1159580);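 further: tested at 20 µM; growth read once vehicle control cultures reached saturation at 30 °C; 1 = growth at the plate median or of vehicle wells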
- studyConditions: S. cerevisiae deletion strains, growth OD, locus YLR262C, strain YPT6
Among all 5,500 compounds or so, about 2,000 (36%) were called active. Inconclusive results (about 18%) are left out. No stated cut-off is given here; in the data, active means normalized growth mostly below about 0.91 (no sharp cut-off); inconclusive means no clear call, values can overlap the other calls; inactive means mostly above about 0.92. The list shows a part of the results.
Entry note: the call must match one of Y for active, N for inactive

molecule: COc1cc(OC)cc(N2C(=O)C=CC2=O)c1
answerLabel: Y

molecule: Cc1ccc(OCc2nnc(SCC(=O)c3ccc(F)cc3)n2-c2ccccc2)c2c1CCC2
answerLabel: N

molecule: OCCN1CCN(CCCN2c3ccccc3Sc3ccc(C(F)(F)F)cc32)CC1
answerLabel: Y

molecule: CN1CCN(CCCN2c3ccccc3Sc3ccc(C(F)(F)F)cc32)CC1
answerLabel: Y

molecule: CN(C)CCc1c[nH]c2ccc(CS(=O)(=O)N3CCCC3)cc12
answerLabel: N

Per the assay record, what outcome was assigned to O=C(O)c1cc([N+](=O)[O-])ccc1NCCCc1ccccc1 ?
N

Per the assay record, what outcome was assigned to C=CCn1c(COc2c(Br)cc(C)c3c2CCC3)n[nH]c1=S ?
Y

Per the assay record, what outcome was assigned to COc1cc(-c2oc3cc(O)ccc3c(=O)c2O)cc(OC)c1OC ?
N

Per the assay record, what outcome was assigned to CC(=O)OCC1=C(C(=O)O)N2C(=O)[C@@H](NC(=O)CCCC(N)C(=O)O)C2SC1 (stereo not given in full) ?
N

Per the assay record, what outcome was assigned to CC1(C)C(=O)[C@@H]2C[C@@]3(O)C4=CC(=O)O[C@@H](c5ccoc5)[C@]4(C)CCC3[C@@](C)(C2=O)[C@H]1CC(=O)O (stereo not given in full) ?
N

---

- measurementProtocol: chemical genetic growth profiling, strain panel (AID 1159580)
- studyConditions: S. cerevisiae deletion strains, growth OD, locus YJL187C, strain SWE1, stronger effect = lower value
Hit rate of the full screen: of about 5,500 compounds, about 2,000 (36%) were called active. About 18% were inconclusive and are not listed. The list shows a part of the results.
propertyMeasured: normalized growth
When you answer, write just the number.

compound: COc1cc(/C=N\NC(=S)NC2CC3CCC2C3)cc(OC)c1OC (stereo unspecified)
propertyMeasured: normalized growth
measValue: 0.996

What measured normalized growth goes with COc1cc(C=Nc2ccc(F)cc2)cc(OC)c1OC ?
0.998

What measured normalized growth goes with Cc1c(NC(=O)c2cccnc2)c(=O)n(-c2ccccc2)n1C ?
0.999

What measured normalized growth goes with Cc1onc(-c2ccccc2)c1C(=O)NC1C(=O)N2[C@@H]1SC(C)(C)[C@@H]2C(=O)O (stereo partly specified) ?
1.02

What measured normalized growth goes with CC1=NN(c2ccccc2)C(=O)C1 ?
0.983

What measured normalized growth goes with COc1cc(NS(=O)(=O)c2ccc(N)cc2)ncn1 ?
0.981

---

- measurementProtocol: chemical genetic growth profiling, strain panel (AID 1159580)
- studyConditions: S. cerevisiae strains, growth OD, strain wild type
Screen size: about 5,500 compounds; about 2,000 (36%) were called active. About 18% were inconclusive and are not listed. Rule as the data show it: active = normalized growth mostly below about 0.91 (no sharp cut-off); inconclusive = no clear call, values can overlap the other calls; inactive = mostly above about 0.92. The list shows a part of the results.
Entry note: the call must match one of t = active, f = inactive

compound: CCC1(CC)C(=O)C=CNC1=O
answerLabel: f
//
compound: COc1cc2nc(-c3cccs3)oc(=O)c2cc1OC
answerLabel: f
//
compound: COc1cnc(NS(=O)(=O)c2ccc(N)cc2)nc1
answerLabel: f

Per the assay record, what outcome was assigned to CN1CCN(CCCN2c3ccccc3Sc3ccc(C(F)(F)F)cc32)CC1 ?
t

Per the assay record, what outcome was assigned to OCCN1CCN(CCCN2c3ccccc3Sc3ccc(C(F)(F)F)cc32)CC1 ?
f

Per the assay record, what outcome was assigned to CN1C(=O)CCS(=O)(=O)C1c1ccc(Cl)cc1 (stereo unspecified) ?
f

---

- measurementProtocol: chemical genetic growth profiling, strain panel (AID 1159580)
- studyConditions: S. cerevisiae deletion strains, growth OD, locus YHR094C, strain hxt1, stronger effect = lower value
Out of some 5,500 compounds screened, about 2,000 (36%) were called active. Inconclusive results (about 18%) are left out. This is one part of the list.
propertyMeasured: normalized growth
When you answer, write just the number.

What measured normalized growth goes with O=c1[nH]cnc2c1ncn2C1O[C@H](CO)[C@@H](O)[C@H]1O (stereo partly drawn) ?
1.02

What measured normalized growth goes with O=C(O)c1cc(=O)c2c(Cl)cc(Cl)cc2[nH]1 ?
1.02

What measured normalized growth goes with COc1cc2c(cc1O)CCNC2C (stereo not drawn) ?
0.971

What measured normalized growth goes with O=C(O)[C@H](O)[C@@](O)(Cc1ccc(O)cc1)C(=O)O ?
0.999

What measured normalized growth goes with COc1ccc(C2C(=O)c3ccccc3C2=O)cc1 ?
0.999

---

- measurementProtocol: chemical genetic growth profiling, strain panel (AID 1159580);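 further: tested at 20 µM; growth read once vehicle control cultures reached saturation at 30 °C; 1 = growth at the plate median or of vehicle wells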
- studyConditions: S. cerevisiae deletion strains, growth OD, locus YJL164C, strain tpk1
The campaign covered roughly 5,500 compounds. About 2,000 (36%) were called active. Another 18% or so got no clear call; they are omitted. No stated cut-off is given here; in the data, active means normalized growth mostly below about 0.91 (no sharp cut-off); inconclusive means no clear call, values can overlap the other calls; inactive means mostly above about 0.92. This is one part of the list.
Entry note: the call must match one of active, inactive

Please review the following examples before continuing.
molecule: O=c1oc2c(O)c(O)cc3c(=O)oc4c(O)c(O)cc1c4c23
answerLabel: active

molecule: CC(=O)NO
answerLabel: inactive

molecule: NC[C@H]1O[C@H](O[C@H]2C(O[C@@H]3O[C@H](CO)[C@@H](O)[C@H]3O)[C@@H](O)[C@H](N)C[C@@H]2N)[C@H](N)[C@@H](O)[C@@H]1O (some centres not stated)
answerLabel: inactive

molecule: NC(=O)NO
answerLabel: inactive

molecule: NC(N)=NC(N)=Nc1ccccc1
answerLabel: inactive

Per the assay record, what outcome was assigned to CNCC[C@@H](Oc1ccccc1)c1ccccc1 ?
inactive

Per the assay record, what outcome was assigned to COc1c2occc2c(OC)c2c(=O)cc(C)oc12 ?
inactive

Per the assay record, what outcome was assigned to NCCc1c[nH]c2ccccc12 ?
inactive

Per the assay record, what outcome was assigned to CC(=O)Oc1cc2c(c(C)c1OC(C)=O)CC1OC13C2(C)CCC1(C)C2CC(C)(C(=O)O)CCC2(C)CCC13C (configuration not stated) ?
inactive

Per the assay record, what outcome was assigned to CC(=O)N[C@@H](Cc1c[nH]c2ccccc12)C(=O)O ?
inactive

Per the assay record, what outcome was assigned to CC(=O)[C@@]1(O)CCC2C3CCC4=CC(=O)CC[C@]4(C)C3CC[C@@]21C (some centres not stated) ?
inactive

Per the assay record, what outcome was assigned to OC(c1cc(C(F)(F)F)nc2c(C(F)(F)F)cccc12)C1CCCCN1 (configuration not stated) ?
inactive

Per the assay record, what outcome was assigned to COc1ccc([C@H]2COc3c(ccc(O)c3OC)C2)c(OC)c1O ?
inactive

Per the assay record, what outcome was assigned to COc1c2ccoc2cc2oc(C)cc(=O)c12 ?
inactive

Per the assay record, what outcome was assigned to CO[C@H]1C[C@H](O[C@H]2[C@H](C)[C@@H](OC3O[C@H](C)C[C@H](N(C)C)[C@H]3OC(C)=O)[C@@H](C)C[C@]3(CO3)C(=O)[C@H](C)[C@@H](OC(C)=O)[C@@H](C)[C@@H](C)OC(=O)[C@@H]2C)O[C@@H](C)[C@@H]1OC(C)=O (some centres not stated) ?
inactive

Per the assay record, what outcome was assigned to CCOC([O-])=Nc1c[n+](N2CCOCC2)no1 ?
inactive

Per the assay record, what outcome was assigned to COc1cc(O)cc(OC)c1OC ?
inactive

Per the assay record, what outcome was assigned to OCc1c[nH]c2ccccc12 ?
active

Per the assay record, what outcome was assigned to O=C(NC1CCCCC1)NC1CCCCC1 ?
inactive

Per the assay record, what outcome was assigned to CC1=C(O)C(=O)C=C2C1=CC=C1[C@@]2(C)CC[C@@]2(C)[C@@H]3C[C@](C)(C(=O)O)CC[C@]3(C)CC[C@]12C ?
active

Per the assay record, what outcome was assigned to CC(NCCC(c1ccccc1)c1ccccc1)c1ccccc1 (configuration not stated) ?
inactive

Per the assay record, what outcome was assigned to c1ccc2c(Cc3c[nH]c4ccccc34)c[nH]c2c1 ?
active

---

- measurementProtocol: chemical genetic growth profiling, strain panel (AID 1159580);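 further: tested at 20 µM; growth read once vehicle control cultures reached saturation at 30 °C; 1 = growth at the plate median or of vehicle wells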
- studyConditions: S. cerevisiae deletion strains, growth OD, locus YGL227W, strain vid30
About 2,000 (36%) of roughly 5,500 compounds were called active. About 18% were inconclusive and are not listed. Rule as the data show it: active = normalized growth mostly below about 0.91 (no sharp cut-off); inconclusive = no clear call, values can overlap the other calls; inactive = mostly above about 0.92. This is one part of the list.
Entry note: the call must match one of 1 (yes) = active, 0 (no) = inactive

Per the assay record, what outcome was assigned to CC(=O)Oc1cccc2c1C(=O)c1c(OC(C)=O)cc(C(=O)O)cc1C2=O ?
0 (no)

---

- measurementProtocol: chemical genetic growth profiling, strain panel (AID 1159580);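 further: tested at 20 µM; growth read once vehicle control cultures reached saturation at 30 °C; 1 = growth at the plate median or of vehicle wells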
- studyConditions: S. cerevisiae deletion strains, growth OD, locus YAL040C, strain CLN3, stronger effect = lower value
Out of some 5,500 compounds screened, about 2,000 (36%) were called active. Inconclusive results (about 18%) are left out. Some of the results follow.
propertyMeasured: normalized growth
When you answer, write just the number.

# count of solved cases: 3
molecule: CC(=O)NBr
normalized growth: 0.995
//
molecule: Cn1cc(C(F)(F)F)nc1-c1ccc(OCC(O)CNCCOc2ccc(O)c(C(N)=O)c2)cc1 (stereo not given)
normalized growth: 0.996
//
molecule: CC(=O)[C@@]1(O)CC[C@H]2[C@@H]3CCC4=CC(=O)CC[C@]4(C)[C@H]3CC[C@@]21C
normalized growth: 0.947

What measured normalized growth goes with NC(=O)CNCCC(c1ccccc1)c1ccccc1 ?
0.962

What measured normalized growth goes with C[C@]12CCC(=O)C=C1CC[C@@H]1[C@@H]2CC[C@@]2(C)[C@H]1CC[C@]2(O)C(=O)CO ?
1
